Source: paper PMC9482650

# tgt: PDZD9, Q8IXQ8
# Sequence (Q8IXQ8 23-120): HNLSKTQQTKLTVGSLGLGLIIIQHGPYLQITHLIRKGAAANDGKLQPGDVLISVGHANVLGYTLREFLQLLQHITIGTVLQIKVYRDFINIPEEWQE
# procedureSummary: holdup assay
# Design: key: below the threshold = too weak to quantify, mostly under pKd 3.1 to 4
# conditionSummary: plain residues with an end cap or a label only (N-terminal biotin on a linker: ttds)
measurementName: pKd

binder	measurementName	measValue
SSRTRRETQL [HPV16-E6, P03126]	pKd	4.06
RSLEEEESQL [GRASP, Q7Z6J2]	pKd	below the threshold
SRPQRTQTQV [HPV67-E6, A4U7F2]	pKd	below the threshold
QSARYRDTEL [TJP2, Q9UDY2]	pKd	below the threshold
